Biological target: T1, PUF4 RNA-binding domain (Saccharomyces cerevisiae, UniProt P25339 537-888)
T1 sequence: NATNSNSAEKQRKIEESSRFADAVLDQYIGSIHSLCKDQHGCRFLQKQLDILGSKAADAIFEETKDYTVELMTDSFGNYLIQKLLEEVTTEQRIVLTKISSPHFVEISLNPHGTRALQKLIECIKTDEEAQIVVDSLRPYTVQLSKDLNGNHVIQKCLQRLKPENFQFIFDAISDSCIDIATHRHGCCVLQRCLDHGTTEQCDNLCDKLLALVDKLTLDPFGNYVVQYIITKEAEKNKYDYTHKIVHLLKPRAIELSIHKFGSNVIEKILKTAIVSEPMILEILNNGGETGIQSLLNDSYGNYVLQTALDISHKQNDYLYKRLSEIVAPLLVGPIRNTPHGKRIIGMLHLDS
Test: Mg; RNA-MaP; 20 mM Na-HEPES pH 7.4, 30 mM KOAc, 0.75 mM MgCl2, 0.1% Tween-20, 5% glycerol, 0.1 mg/mL BSA, 2 mM DTT; 25 C; 0.0125-409.6 nM protein
Conditions: tags: N-His6-TEV cleaved; C-SNAP kept, Cy3B-labelled; label: tethered on chip by stalled RNA polymerase
pKd: −log10 of the molar value.
Quick reference for pKd among some binders

# binder, pKd
measured = [
    ("UCUCUUCCUAUAUAUUACCUCUCUU (ssRNA) [Id_ii_S1_P4E.3_K4.2_C4.2_[T-1C]_H4.2_A4.1_F4.1_T4.2_[G10C]_[T11C]]", 7.55),
    ("Ic_S4_P5E.1_K5.1_C5.1_H5.1_A5.1_[T5G]_[T6C]_F5.1_[T9A]_[A10C]_T5.1 (ssRNA) RNA: UUUGACAACUGAUCGUUCUUUCUUGUAGCAUACUUCUUUCUCGAUCAGUUGUCUUU", 8.16),
    ("Id_ii_S4_P3E.3_K3.2_C3.2_[T-1C]_H3.2_A3.1_F3.1_T3.2_[T9C]_[A10C] (ssRNA) RNA: UUUGACAACUGAUCGUUCUUUCUCCUAUAUAUACCUUCUUUCUCGAUCAGUUGUCUUU", 6.61),
    ("UCUCUUUGUAUCUGAUCUCUU (ssRNA) [Ic_S1_P4E.1_K4.1_C4.1_H4.1_A4.1_[A6C]_F4.1_[T8G]_T4.1]", 7.12),
    ("Id_ii_S4_P3E.3_K3.2_C3.2_[C-2T]_[T-1C]_H3.2_A3.1_F3.1_T3.2_[T9A] (ssRNA) RNA: UUUGACAACUGAUCGUUCUUUCUUCUAUAUAUAAAUUCUUUCUCGAUCAGUUGUCUUU", 6.33),
    ("UCUCUUGUUAUAUAUUAUCUCUCUU (ssRNA) [Id_ii_S1_P4E.3_K4.2_C4.2_[C-2G]_H4.2_A4.1_F4.1_T4.2_[G10T]_[T11C]]", 7.90),
]
